Data credit: paper PMC12621184

Target: NOP-RLuc (UniProt P41146)
Sequence (P41146 whole entry): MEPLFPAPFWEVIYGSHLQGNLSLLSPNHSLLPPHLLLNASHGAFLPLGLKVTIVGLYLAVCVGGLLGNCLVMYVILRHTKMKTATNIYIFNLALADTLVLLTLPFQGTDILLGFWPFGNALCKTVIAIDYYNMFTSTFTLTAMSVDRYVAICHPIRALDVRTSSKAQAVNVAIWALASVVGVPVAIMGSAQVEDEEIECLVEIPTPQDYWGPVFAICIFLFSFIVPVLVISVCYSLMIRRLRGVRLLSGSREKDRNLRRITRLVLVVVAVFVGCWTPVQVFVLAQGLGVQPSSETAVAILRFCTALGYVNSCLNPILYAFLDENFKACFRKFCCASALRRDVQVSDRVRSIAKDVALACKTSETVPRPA
Conditions: scale: fraction of the maximal effect of N/OFQ-NH2
Ends that are not written are not given here.
MEASURED_PROPERTY: E max, NOP–G protein interaction (BRET), normalised to N/OFQ-NH2 (E max = 1)

Can you share its E max, NOP–G protein interaction (BRET), normalised to N/OFQ-NH2 (E max = 1)? I mean this binder: FGGFTGARKSARKLACQ-NH2 (also: homodimer: Cys16-Cys16 disulfide to second copy) [[[Cys^16]N/OFQ-NH2]2]
0.98

Entry FGGFTGARKSACKLANQ-NH2 (also: homodimer: Cys12-Cys12 disulfide to second copy) [[[Cys^12]N/OFQ-NH2]2] please
1.07

Entry FGGFTGARKSARKCANQ-NH2 (also: homodimer: Cys14-Cys14 disulfide to second copy) [[[Cys^14]N/OFQ-NH2]2] please
0.8

Next binder, please.
Can you share its E max, NOP–G protein interaction (BRET), normalised to N/OFQ-NH2 (E max = 1)? I mean this binder: FGGFTGACKSARKLANQ-NH2 (also: homodimer: Cys8-Cys8 disulfide to second copy) [[[Cys^8]N/OFQ-NH2]2]
1.04
